assay: ATB200-04 trial: population PK exposure matching of adolescents to adults
Format: in vivo, human
details: human, plasma, po, 195 mg, adolescent Subject 6; 195 mg; Week 52; 36.5 kg; read-out: individual predicted AUC0-24
measurement-type: AUC(0-t) (µg·h/mL)
Please give a number only; it is taken to be in µg·h/mL.

INPUT: Output measured AUC(0-t) for this item: CCCCN1C[C@H](O)[C@@H](O)[C@H](O)[C@H]1CO
OUTPUT: 13.5

====

assay: ATB200-04 trial: population PK exposure matching of adolescents to adults
Format: in vivo, human
details: human, plasma, po, miglustat, predicted; Adolescents N=8; read-out: Cmax, Geo Mean
Method: The ATB200-04 trial seeks to evaluate the safety and tolerability of cipaglucosidase alfa/miglustat co-administration. Subjects have scheduled PK assessments at Day 1, Week 26, and Week 52 for plasma total GAA protein and miglustat. […] Methods for Exposure Matching. […] The effect of age at baseline on clearance was also evaluated in the PK models. […]
measurement-type: Cmax (ng/mL)
Unit ng/mL implied. Number only.

INPUT: Tell me Cmax reported for CCCCN1C[C@H](O)[C@@H](O)[C@H](O)[C@H]1CO
OUTPUT: 2130

====

assay: ATB200-04 trial: population PK exposure matching of adolescents to adults
Type: in vivo, human
details: human, plasma, po, miglustat, predicted; Adolescents N=8; read-out: Cmax, P5
measurement-type: Cmax (ng/mL)
Supply the numeric figure in ng/mL, leaving out any unit text.

INPUT: Report Cmax for CCCCN1C[C@H](O)[C@@H](O)[C@H](O)[C@H]1CO
OUTPUT: 1740

====

assay: ATB200-04 trial: population PK exposure matching of adolescents to adults
Assay type: in vivo, human
details: human, plasma, po, 195 mg, adolescent Subject 5; 195 mg; Week 52; 43.7 kg; read-out: individual predicted AUC0-24
measurement-type: AUC(0-t)

INPUT: Tell me AUC(0-t) reported for CCCCN1C[C@H](O)[C@@H](O)[C@H](O)[C@H]1CO
OUTPUT: 21000 ng·h/mL

====

assay: ATB200-04 trial: population PK exposure matching of adolescents to adults
Assay type: in vivo, human
details: human, plasma, po, miglustat, predicted; Adolescents N=8; read-out: Cmax, Median
measurement-type: Cmax (ng/mL)
Report as a plain number; the unit ng/mL is understood.

INPUT: Give recorded Cmax. CCCCN1C[C@H](O)[C@@H](O)[C@H](O)[C@H]1CO
OUTPUT: 2040

====

assay: ATB200-04 trial: population PK exposure matching of adolescents to adults
Assay type: in vivo, human
details: human, plasma, po, 260 mg, adolescent Subject 1; 260 mg; Week 52; 77.9 kg; read-out: individual predicted AUC0-24
measurement-type: AUC(0-t)
// return the numeric value with its unit appended

INPUT: Answer with the recorded AUC(0-t) for the compound listed here: CCCCN1C[C@H](O)[C@@H](O)[C@H](O)[C@H]1CO
OUTPUT: 20400 ng·h/mL

====

assay: ATB200-04 trial: population PK exposure matching of adolescents to adults
Format: in vivo, human
details: human, plasma, oral, miglustat, predicted; Adults N=100; read-out: AUC0-24, Geo Mean
measurement-type: AUC(0-t) (ng·h/mL)
The figure you give is taken to be in ng·h/mL; do not add the unit.

INPUT: Indicate its recorded AUC(0-t); the compound in question is CCCCN1C[C@H](O)[C@@H](O)[C@H](O)[C@H]1CO
OUTPUT: 20400
